molecular target: Homeobox protein Hox-A13 (Mus musculus) (UniProt Q62424); assay: inhibitors of HoxA13-DNA binding, primary screen, biochemical, fluorescence polarization, labeled oligonucleotide (AID 1185); settings: 15 min, higher = more signal, called active from +8 up or from −8 down
Sequence (Q62424 whole entry, looked up): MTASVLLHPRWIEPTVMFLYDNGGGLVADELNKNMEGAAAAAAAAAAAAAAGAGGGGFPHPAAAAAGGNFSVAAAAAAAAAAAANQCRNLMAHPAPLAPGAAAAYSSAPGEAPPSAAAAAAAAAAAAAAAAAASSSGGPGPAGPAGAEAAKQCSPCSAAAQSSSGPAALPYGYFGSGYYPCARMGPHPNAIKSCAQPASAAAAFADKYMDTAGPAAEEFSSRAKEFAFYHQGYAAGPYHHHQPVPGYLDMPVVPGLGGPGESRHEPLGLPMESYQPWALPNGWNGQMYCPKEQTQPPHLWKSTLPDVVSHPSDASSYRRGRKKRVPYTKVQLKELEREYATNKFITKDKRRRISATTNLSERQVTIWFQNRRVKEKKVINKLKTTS
Mark true (1) for reported z-score of -4 or greater; mark false (0) for anything smaller.

1) CCCCN1CC=CC23O[C@@H]4/C=C\CCC(C)OC(=O)C4[C@H]2C(=O)N(C(C)CO)[C@@H]3C1=O (stereo partly drawn) ... false (0)
2) [N-]=[N+]=NCc1ccccc1[C@@H]1OC(c2ccc(OCCCO)cc2)=N[C@]1(Cc1ccccc1)C(=O)NCc1ccccc1 ... true (1)
3) N[C@@H](Cc1ccccc1)Cn1cc(C2(O)CCCCC2)nn1 ... true (1)

QUERY: Determine whether measured z-score meets or exceeds -4 for C=CC[C@]1(C(=O)N(C)C)COC(c2ccc(OCCCO)cc2)=N1
RESULT: true (1)

QUERY: Determine whether measured z-score meets or exceeds -4 for C=CCC(OC(C)=O)[C@@H]1[C@@H](N(Cc2cc3ccccc3o2)C(=O)Cc2ccc(OC)cc2)c2cc(OCCCO)ccc2N1C(=O)Cc1ccc(OC)cc1 (stereo partly drawn)
RESULT: true (1)

QUERY: Determine whether measured z-score meets or exceeds -4 for CC=CC(O)C1C=CC2C(=O)N(C)C(=O)C2N1NC(=O)OC(C)(C)C (stereo not drawn)
RESULT: true (1)

QUERY: Determine whether measured z-score meets or exceeds -4 for CC(C)CNC(=O)[C@@H]1c2ccccc2C(=O)N(Cc2ccccc2)[C@H]1c1ccc(CO)cc1
RESULT: true (1)

QUERY: Determine whether measured z-score meets or exceeds -4 for COC(=O)[C@@]1(Cc2ccccc2CN=[N+]=[N-])COC(c2ccc(OCCCO)cc2)=N1
RESULT: false (0)

###

Reported composite z-score values follow for various molecules
test: binders of probe aFST on microarray, primary screen, stem cell growth factor project, biochemical, small-molecule microarray, fluorescence 635/667 (AID 1086); conditions: higher = more signal;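 further: score merges 667 nm fluorescence with signal-to-noise of each printed compound spot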
Respond with the number and no other words.

1. CCCCN1CC=CC23O[C@@H]4C=CCOC(=O)[C@@H]4[C@H]2C(=O)N(CCO)[C@@H]3C1=O (stereo partly drawn) ... -0.657
2. COc1ccc(NC(=O)O[C@H]2[C@H](OC(=O)Nc3ccc4c(c3)OCO4)[C@H](OC(=O)Nc3ccc4c(c3)OCO4)[C@@H](OC)O[C@@H]2CO)cc1 ... 0.327
3. Cc1ccc(F)cc1S(=O)(=O)N[C@@H]1CCN(Cc2ccc3c(c2)OCO3)C1 ... -0.264
4. COCCOC(=O)N1C(=O)[C@@]2(c3cc(C#Cc4ccc(OC)cc4)ccc31)[C@H](C(=O)N1CCCCCCC1)[C@H]1C(=O)O[C@H](c3ccccc3)[C@H](c3ccccc3)N1[C@@H]2c1ccccc1OCCO ... 3.04
5. CC(C)C[C@@H]1NC(=O)[C@@]23C(=O)N[C@@H](Cc4ccccc4)C2[C@H](C)[C@@]2(C)O[C@H]2C3/C=C/C/C=C\CNC(=O)[C@@H](CC(C)C)NC1=O (stereo partly drawn) ... 0.355

QUERY: Recorded composite z-score for COCCOC(=O)N1C(=O)[C@@]2(c3cc(C#Cc4ccc(OC)cc4)ccc31)[C@H](c1ccc(OCCO)cc1)N1[C@H](c3ccccc3)[C@H](c3ccccc3)OC(=O)[C@H]1[C@@H]2C(=O)N1CCCCCCC1 , please?
RESULT: 2.75

QUERY: Recorded composite z-score for CC(C)[C@@H](C(=O)O)n1cc(-c2ccccc2)nn1 , please?
RESULT: 0.874

QUERY: Recorded composite z-score for O=C1O[C@@H](c2ccccc2)[C@@H](c2ccccc2)N2[C@@H](c3ccc(O)cc3)[C@]3(C(=O)Nc4ccc(C#CC5=CCCCC5)cc43)[C@@H](C(=O)N3CCCCCCC3)[C@H]12 , please?
RESULT: 2.44

QUERY: Recorded composite z-score for CN1C=C(C(=O)OCCS(C)(=O)=O)C(C(=O)OCCS(C)(=O)=O)=CC(CCCO)=CC1c1ccc(CN2CCCC2)cc1 (stereo not drawn) , please?
RESULT: 1.65

QUERY: Recorded composite z-score for Cc1ccc(S[C@]2(C(=O)NC3CC3)CC(=O)N(Cc3cc(C(F)(F)F)cc(C(F)(F)F)c3)[C@@H]2c2ccc(CO)cc2I)cc1 , please?
RESULT: 0.457

QUERY: Recorded composite z-score for COC(=O)[C@@]1(Cc2ccccc2CN=[N+]=[N-])COC(c2ccc(OCCCO)cc2)=N1 , please?
RESULT: -0.575

QUERY: Recorded composite z-score for COCC1=C([C@H](O)CCc2ccccc2)[C@H](CO)n2c(=O)n(-c3ccccc3)c(=O)n2C1 , please?
RESULT: -0.371

###

biological target: Dickkopf-related protein 1 (Homo sapiens); test: DKK1 binders on small-molecule microarrays, primary screen, biochemical, small-molecule microarray, 635 nm fluorescence scan (AID 1106); settings: DKK1 binding, higher = more signal;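 further: score merges emission near 667 nm with signal to noise over three replicate slides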
observed property: composite z-score
Respond with the number and no other words.

Here's what some known entries look like.
1) C#CCN([C@H](/C=C/C1CC1)[C@@H](O)Cc1ccccc1)[C@@H](Cc1ccccc1)C(=O)OC ... -0.0707
2) CO[C@H]1O[C@H](CO)[C@@H](OC(=O)Nc2ccccc2)[C@@H]2OC(=O)[C@H](Cc3ccccc3)C/C=C/C[C@@H](Cc3ccccc3)C(=O)O[C@@H]12 ... 0.048
3) [N-]=[N+]=NCc1ccccc1C[C@]1(C(=O)N2CCCCC2)N=C(c2ccc(OCCCO)cc2)O[C@H]1c1ccccc1 ... -0.64
4) CCCCC(O)C1C=CC2C(=O)NC(=O)C2N1Nc1ccc(Cl)cc1Cl (stereo not given) ... -0.8
5) COC(=O)[C@@]1(Cc2ccc(OC)cc2)[C@H]2c3cc(C(=O)N(C)C)n(Cc4ccsc4Br)c3C[C@H]2CN1C(=O)c1ccccc1 ... -0.414
6) CN1C(=O)[C@]2(CCC(=O)OC(C)(C)C)N=C(c3ccc(OCCCO)cc3)O[C@@H]2c2ccccc21 ... 0.297
7) COCCOC(=O)N1C(=O)[C@@]2(c3cc(C#CC4(O)CCCCCC4)ccc31)[C@H](c1ccc(OCCO)cc1)N1[C@H](c3ccccc3)[C@H](c3ccccc3)OC(=O)[C@H]1[C@@H]2C(=O)N1CCCCCCC1 ... 0.988
8) COCCOC(=O)N1C(=O)[C@@]2(c3cc(C#CCNC(N)=O)ccc31)[C@H](C(=O)NC[C@H](O)c1ccccc1)[C@H]1C(=O)O[C@H](c3ccccc3)[C@H](c3ccccc3)N1[C@@H]2c1ccc(OCCO)cc1 ... 0.301
9) CC(c1ccccc1)C(O)C1C=CC2C(=O)N(c3ccccc3)C(=O)C2N1Nc1ccc(C#N)cc1 (stereo not given) ... -0.163
10) C=CC[C@@]12N=C(c3ccc(OCCCO)cc3)O[C@@H]1c1ccccc1N(Cc1ccccc1)C2=O ... 0.904

QUERY: Recorded composite z-score for C=CC[C@]1(C(=O)OC)N=C(c2ccc(OCCCO)cc2)O[C@H]1c1ccccc1N=[N+]=[N-] , please?
RESULT: 1.26

QUERY: Recorded composite z-score for O=C1NC(=O)C2C1C=CC(C(O)c1ccc(F)cc1)N2Nc1ccccn1 (stereo not given) , please?
RESULT: 0.297

QUERY: Recorded composite z-score for COCCOC(=O)N1C(=O)[C@@]2(c3cc(C#CC4(O)CCCCCC4)ccc31)[C@H](C(=O)N1CCc3cc(OC)c(OC)cc3C1)[C@H]1C(=O)O[C@H](c3ccccc3)[C@H](c3ccccc3)N1[C@@H]2c1ccc(O)cc1 , please?
RESULT: 0.639

QUERY: Recorded composite z-score for COC(=O)[C@@]1(CCS(=O)(=O)c2ccccc2)N=C(c2ccc(OCCCO)cc2)O[C@H]1c1ccccc1N=[N+]=[N-] , please?
RESULT: 0.425

QUERY: Recorded composite z-score for CCCCCCCCCCC(O)C1C=CC2C(=O)N(C)C(=O)C2N1N1CCCCC1 (stereo not given) , please?
RESULT: -1.29

###

Reported z-score values follow for various compounds
assay: yeast growth modulation, basal conditions, primary screen, YJM789 clinical isolate, OD600, 24 h (AID 1089);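 further: growth of clinical yeast isolate S. cerevisiae YJM 789 seeded 1000 cells per well; test concentration not given here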; settings: S. cerevisiae YJM789 growth, higher = more signal, called active from +8 up or from −8 down
Calls of active or inactive are those of the source.

Here's what some known entries look like.
1. CCCCNC(=O)c1ccc(C#C[Si](C)(C)C)c(OC(C)=O)c1 ... 0.453 (inactive)
2. COc1ccc(C#Cc2ccc3c(c2)[C@]2(C(=O)N3)[C@H](c3ccc(OCCO)cc3)N3[C@H](c4ccccc4)[C@H](c4ccccc4)OC(=O)[C@H]3[C@@H]2C(=O)O)cc1 ... 2.83 (inactive)
3. COc1cccc(C[C@H]2C[C@@H](CO[Si](C(C)C)(C(C)C)C(C)C)N3C(=O)[C@@]4(C(C)=O)O[C@@]23[C@@H]2C(=O)N(C)C(=O)[C@@H]24)c1 ... 0.368 (inactive)

QUERY: Recorded z-score for COCCOC(=O)N1C(=O)[C@@]2(c3cc(C#CCCO)ccc31)[C@H](c1ccccc1OCCO)N1[C@H](c3ccccc3)[C@H](c3ccccc3)OC(=O)[C@H]1[C@@H]2C(=O)N1CCc2cc(OC)c(OC)cc2C1 , please?
RESULT: 1.88 (inactive)

QUERY: Recorded z-score for O=C1N(CCS(=O)(=O)c2ccccc2)c2ccccc2[C@@H]2OC(c3ccc(OCCCO)cc3)=N[C@]12CCS(=O)(=O)c1ccccc1 , please?
RESULT: 0.864 (inactive)

QUERY: Recorded z-score for CC(C)CNC(=O)[C@@]1(C)c2ccccc2C(=O)N(Cc2cc(F)cc(C(F)(F)F)c2)[C@H]1c1ccc(CO)cc1 , please?
RESULT: -1.08 (inactive)

QUERY: Recorded z-score for COCCOC(=O)N1C(=O)[C@@]2(c3cc(C#CC4(O)CCCCCC4)ccc31)[C@H](C(=O)N1CCc3cc(OC)c(OC)cc3C1)[C@H]1C(=O)O[C@H](c3ccccc3)[C@H](c3ccccc3)N1[C@@H]2c1ccc(O)cc1 , please?
RESULT: 0.449 (inactive)

QUERY: Recorded z-score for COc1ccc(CCNC(=O)[C@@]2(C)c3ccccc3C(=O)N(Cc3cc(C(F)(F)F)cc(C(F)(F)F)c3)[C@H]2c2ccc(CO)cc2)cc1 , please?
RESULT: 0.182 (inactive)

QUERY: Recorded z-score for COc1cc(OC)c(C(O)C2C=CC3C(=O)N(c4ccccc4)C(=O)C3N2Nc2ccccc2F)cc1Br (stereo not drawn) , please?
RESULT: 0.0228 (inactive)

QUERY: Recorded z-score for CC1(C)OC[C@@]23C=C(Br)[C@@H](C[C@H]12)[C@@]1(CO1)C3=O , please?
RESULT: 0.409 (inactive)
